# Tested on: HCC1419
# Assay remarks: Cell growth inhibition assay (Cell Titer Glo), HCC1419
# Type: cell-based
# Settings: Homo sapiens, 72 h; HCC1419, PIK3CA WT, 3 days, single agent; read-out: Single agent (IC50, μm)
Endpoint: IC50 (µM)

I = Cn1ncc(Cl)c1-c1cc(C(=O)N[C@H](CN)Cc2ccc(F)c(F)c2)oc1Cl [Compound B]
II = CS(=O)(=O)CCNCc1ccc(-c2ccc3ncnc(Nc4ccc(OCc5cccc(F)c5)c(Cl)c4)c3c2)o1 [Compound A, reference compound]
*Q* API: POST /compare with I and II ; response names the item with higher IC50. Use the label to indicate which entry you chose.
*A* I
(I: 0.573 µM, II: 0.084 µM)
